METHOD_NOTES: Partition coefficient (logP)
Type: physicochemical
MEASUREMENT_CONTEXT: octanol/water
Readings of logP for the listed molecules

MOLECULE: O=NN(CCCl)C(=O)N[C@H]1C(O)O[C@H](CO)[C@@H](O)[C@@H]1O (stereo in doubt; 75) [CHLOROZOTOCIN]
logP: -1.02
//
MOLECULE: O=NN(CCCl)C(=O)N[C@H]1CC[C@H](O)CC1
logP: 1.1
//
MOLECULE: C[C@H]1CCC[C@H](NC(=O)N(CCCl)N=O)C1
logP: 3.3
//
MOLECULE: O=NN(CCF)C(=O)N[C@H]1CC[C@H](C(=O)O)CC1
logP: 1.1
//
MOLECULE: O=NN(CCCl)C(=O)N[C@H]1C(O)O[C@H](CO)[C@@H](O)[C@@H]1O (stereo in doubt; 103) [CHLOROZOTOCIN]
logP: -0.66
//
MOLECULE: O=NN(CCF)C(=O)N[C@H]1CC[C@@H](C(=O)O)CC1
logP: 1.1

###

Test system: L1210
METHOD_NOTES: Toxicity against L-1210 leukemia cells in mice after intraperitoneal administration, activity is expressed as LD10
MEASUREMENT_CONTEXT: mouse, in vivo, ip

MOLECULE: CC(=O)O[C@@H]1[C@@H](OC(C)=O)[C@H](OC(C)=O)CO[C@H]1NC(=O)N(CCCl)N=O
log(1/LD10): 1.25
//
MOLECULE: O=NN(CCCl)C(=O)N[C@H]1CC[C@H](C(=O)O)CC1
log(1/LD10): 1.01
//
MOLECULE: CN(C(=O)N(CC/C=N/C(=O)N(CCCl)N=O)N=O)C1CCCCC1
log(1/LD10): -0.207
//
MOLECULE: COC(=O)[C@H]1CC[C@@H](NC(=O)N(CCCl)N=O)CC1
log(1/LD10): 0.733
//
MOLECULE: O=NN(CCCl)C(=O)NC1CCCCC1
log(1/LD10): 0.613
//
MOLECULE: CC(C)(C)C1CCCC(NC(=O)N(CCCl)N=O)C1 (stereo not drawn)
log(1/LD10): 0.239
//
MOLECULE: O=NN(CCCl)C(=O)N[C@@H]1CCCC[C@H]1O
log(1/LD10): 1.1
//
MOLECULE: O=COCC1CCC(NC(=O)N(CCCl)N=O)CC1 (stereo not drawn)
log(1/LD10): 1.12
//
MOLECULE: C[C@H]1CC[C@@H](NC(=O)N(CCCl)N=O)CC1
log(1/LD10): 0.435
//
MOLECULE: CC1SCC(NC(=O)N(CCCl)N=O)CS1 (stereo not drawn)
log(1/LD10): 1
//
MOLECULE: COC1OC(COC(C)=O)C(OC(C)=O)C(NC(=O)N(CCCl)N=O)C1OC(C)=O (stereo not drawn)
log(1/LD10): 1.06
//
MOLECULE: CC(=O)O[C@H]1CCCC[C@H]1NC(=O)N(CCCl)N=O
log(1/LD10): 0.776
//
MOLECULE: CCOC(=O)C1CCCC(NC(=O)N(CCCl)N=O)C1 (stereo not drawn)
log(1/LD10): 0.786
//
MOLECULE: O=NN(CCCl)C(=O)NC1CCC(CC2CCC(NC(=O)N(CCCl)N=O)CC2)CC1 (stereo not drawn)
log(1/LD10): 0.283
//
MOLECULE: CCC1CCC(NC(=O)N(CCCl)N=O)CC1 (stereo not drawn)
log(1/LD10): 0.445
//
MOLECULE: O=NN(CCCl)C(=O)NC1CCCCCCCCCCC1
log(1/LD10): -0.573
//
MOLECULE: O=NN(CCF)C(=O)NC1CC2CCC1C2 (stereo not drawn)
log(1/LD10): 0.547
//
MOLECULE: CC(NC(=O)N(CCCl)N=O)C(=O)O (stereo not drawn)
log(1/LD10): 0.511
//
MOLECULE: C[C@H]1S(=O)(=O)C[C@@H](NC(=O)N(CCCl)N=O)CS1(=O)=O
log(1/LD10): 1.04
//
MOLECULE: CC(C)(NC(=O)N(CCCl)N=O)C(=O)O
log(1/LD10): -0.049
//
MOLECULE: CCCCCC(C)NC(=O)N(CCCl)N=O (stereo not drawn)
log(1/LD10): 0.642
//
MOLECULE: CC1(C)CCC(NC(=O)N(CCF)N=O)CC1
log(1/LD10): 0.674
//
MOLECULE: O=NN(CCCl)C(=O)NC1CSCSC1
log(1/LD10): 1.07
